Target: FAS (fatty acid synthase), Yeast (Saccharomyces cerevisiae, UniProt P19097)
Construct: Yeast extracts were prepared from freeze-dried yeast; endogenous in cells
Sequence (P19097 whole entry): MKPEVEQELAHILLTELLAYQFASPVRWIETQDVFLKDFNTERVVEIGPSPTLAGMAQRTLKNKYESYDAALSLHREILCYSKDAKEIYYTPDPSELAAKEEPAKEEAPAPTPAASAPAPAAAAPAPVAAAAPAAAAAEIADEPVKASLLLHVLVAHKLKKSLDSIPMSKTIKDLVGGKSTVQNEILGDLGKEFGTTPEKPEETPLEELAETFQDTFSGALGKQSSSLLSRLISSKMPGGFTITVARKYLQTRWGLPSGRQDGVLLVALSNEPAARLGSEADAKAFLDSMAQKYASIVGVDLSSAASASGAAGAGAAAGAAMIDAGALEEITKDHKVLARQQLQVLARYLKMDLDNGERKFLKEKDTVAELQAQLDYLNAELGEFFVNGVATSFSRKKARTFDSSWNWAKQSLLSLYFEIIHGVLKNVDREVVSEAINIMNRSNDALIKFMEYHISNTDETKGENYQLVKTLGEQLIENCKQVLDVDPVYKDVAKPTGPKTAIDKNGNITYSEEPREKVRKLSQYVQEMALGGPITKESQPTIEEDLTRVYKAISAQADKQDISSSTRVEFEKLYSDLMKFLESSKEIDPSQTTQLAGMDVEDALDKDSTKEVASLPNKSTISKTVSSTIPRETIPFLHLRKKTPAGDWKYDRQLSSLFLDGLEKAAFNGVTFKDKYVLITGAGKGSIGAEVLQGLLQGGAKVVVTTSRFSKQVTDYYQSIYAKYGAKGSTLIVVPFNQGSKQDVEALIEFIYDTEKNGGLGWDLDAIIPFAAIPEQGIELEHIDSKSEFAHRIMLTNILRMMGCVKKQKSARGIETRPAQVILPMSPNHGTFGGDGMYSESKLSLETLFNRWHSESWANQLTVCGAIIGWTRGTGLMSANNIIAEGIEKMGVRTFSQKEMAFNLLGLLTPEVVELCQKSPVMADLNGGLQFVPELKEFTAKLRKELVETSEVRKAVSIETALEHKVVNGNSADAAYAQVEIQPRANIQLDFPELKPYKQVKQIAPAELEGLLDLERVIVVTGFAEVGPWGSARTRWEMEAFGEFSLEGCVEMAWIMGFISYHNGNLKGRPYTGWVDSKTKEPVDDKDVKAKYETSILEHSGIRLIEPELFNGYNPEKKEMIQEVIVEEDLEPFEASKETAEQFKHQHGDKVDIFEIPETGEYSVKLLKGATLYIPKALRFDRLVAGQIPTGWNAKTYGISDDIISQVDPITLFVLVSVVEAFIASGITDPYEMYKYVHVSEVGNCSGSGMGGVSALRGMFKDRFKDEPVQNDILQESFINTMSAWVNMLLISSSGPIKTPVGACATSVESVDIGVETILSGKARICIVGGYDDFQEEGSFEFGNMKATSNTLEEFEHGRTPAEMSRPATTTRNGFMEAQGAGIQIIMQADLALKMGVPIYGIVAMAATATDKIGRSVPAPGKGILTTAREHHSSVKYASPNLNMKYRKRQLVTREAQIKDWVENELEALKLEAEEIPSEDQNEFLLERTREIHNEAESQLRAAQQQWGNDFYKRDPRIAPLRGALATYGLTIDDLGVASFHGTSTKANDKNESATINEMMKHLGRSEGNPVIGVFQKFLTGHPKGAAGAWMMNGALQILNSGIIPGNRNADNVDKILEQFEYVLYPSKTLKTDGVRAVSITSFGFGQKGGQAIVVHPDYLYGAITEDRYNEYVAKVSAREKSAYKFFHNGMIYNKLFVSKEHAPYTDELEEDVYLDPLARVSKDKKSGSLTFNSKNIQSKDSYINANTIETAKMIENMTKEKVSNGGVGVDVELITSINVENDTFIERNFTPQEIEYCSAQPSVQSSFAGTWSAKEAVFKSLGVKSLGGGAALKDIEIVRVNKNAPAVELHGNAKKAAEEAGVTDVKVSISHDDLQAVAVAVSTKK
Sequence (P07149 whole entry partner): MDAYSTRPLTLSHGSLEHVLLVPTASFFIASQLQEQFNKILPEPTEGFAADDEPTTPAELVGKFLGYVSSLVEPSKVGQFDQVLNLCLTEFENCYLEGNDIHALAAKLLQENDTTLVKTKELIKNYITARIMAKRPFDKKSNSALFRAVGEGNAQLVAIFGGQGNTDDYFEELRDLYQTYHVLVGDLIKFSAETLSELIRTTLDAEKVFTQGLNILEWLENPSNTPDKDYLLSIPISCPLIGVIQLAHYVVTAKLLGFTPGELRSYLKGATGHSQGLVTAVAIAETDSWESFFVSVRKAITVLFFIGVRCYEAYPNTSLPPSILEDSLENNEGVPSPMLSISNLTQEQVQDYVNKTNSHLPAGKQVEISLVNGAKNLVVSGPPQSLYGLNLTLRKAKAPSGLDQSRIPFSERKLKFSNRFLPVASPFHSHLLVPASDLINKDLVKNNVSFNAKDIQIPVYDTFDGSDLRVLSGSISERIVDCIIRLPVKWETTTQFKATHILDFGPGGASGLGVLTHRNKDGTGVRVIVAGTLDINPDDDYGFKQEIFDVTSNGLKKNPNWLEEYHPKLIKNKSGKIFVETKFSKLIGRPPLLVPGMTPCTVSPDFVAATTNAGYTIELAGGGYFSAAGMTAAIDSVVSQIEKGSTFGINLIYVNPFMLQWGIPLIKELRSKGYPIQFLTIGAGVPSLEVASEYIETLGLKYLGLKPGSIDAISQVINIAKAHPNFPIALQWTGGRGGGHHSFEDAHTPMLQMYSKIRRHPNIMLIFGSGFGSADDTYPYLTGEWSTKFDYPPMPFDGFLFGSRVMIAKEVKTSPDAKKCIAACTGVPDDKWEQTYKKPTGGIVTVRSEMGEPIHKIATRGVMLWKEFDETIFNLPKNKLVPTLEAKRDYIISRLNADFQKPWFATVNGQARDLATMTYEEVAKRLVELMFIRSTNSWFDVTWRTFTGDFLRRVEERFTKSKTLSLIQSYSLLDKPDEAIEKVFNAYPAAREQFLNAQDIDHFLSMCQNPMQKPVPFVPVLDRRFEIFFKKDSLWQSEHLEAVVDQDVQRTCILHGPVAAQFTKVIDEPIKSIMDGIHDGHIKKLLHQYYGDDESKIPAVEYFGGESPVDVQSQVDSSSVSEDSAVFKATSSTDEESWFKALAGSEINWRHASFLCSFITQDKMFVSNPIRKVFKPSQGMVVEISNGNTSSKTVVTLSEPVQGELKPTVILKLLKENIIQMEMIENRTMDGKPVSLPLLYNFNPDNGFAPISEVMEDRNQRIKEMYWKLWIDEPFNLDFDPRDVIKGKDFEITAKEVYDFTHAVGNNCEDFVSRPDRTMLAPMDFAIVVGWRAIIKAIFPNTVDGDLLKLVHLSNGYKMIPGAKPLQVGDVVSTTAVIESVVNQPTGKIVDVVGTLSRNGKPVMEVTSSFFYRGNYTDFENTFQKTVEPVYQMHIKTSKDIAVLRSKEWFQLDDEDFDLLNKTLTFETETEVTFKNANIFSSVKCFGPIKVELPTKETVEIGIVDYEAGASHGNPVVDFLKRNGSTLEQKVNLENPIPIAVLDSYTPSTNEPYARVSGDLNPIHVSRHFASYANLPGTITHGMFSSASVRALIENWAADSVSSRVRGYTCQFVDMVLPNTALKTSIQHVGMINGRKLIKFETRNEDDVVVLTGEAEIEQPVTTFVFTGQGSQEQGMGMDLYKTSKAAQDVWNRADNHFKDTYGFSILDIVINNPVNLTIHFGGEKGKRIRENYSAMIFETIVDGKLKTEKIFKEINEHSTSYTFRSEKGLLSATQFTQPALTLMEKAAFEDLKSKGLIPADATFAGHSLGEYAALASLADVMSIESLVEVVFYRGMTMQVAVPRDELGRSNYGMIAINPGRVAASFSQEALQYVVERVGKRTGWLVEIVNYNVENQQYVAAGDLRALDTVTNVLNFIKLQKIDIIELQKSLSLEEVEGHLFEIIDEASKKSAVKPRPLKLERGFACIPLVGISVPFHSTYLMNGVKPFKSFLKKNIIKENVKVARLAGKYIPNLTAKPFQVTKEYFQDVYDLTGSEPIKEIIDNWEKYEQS
Assay: FAS enzymatic assay, crude yeast extract (NADPH oxidation)
Conditions: 30 min incubation at 10°-25° C., read-out: IC50 for inhibition of FAS activity, Yeast
This section presents compounds with their documented IC50 values.

- Cc1cccc(/C=C/CCC(=O)C2OC2C(N)=O)c1 (centres unmarked): 82 µM

// moving on: another record for IC50
Need IC50 of C/C=C/C/C=C/CCC(=O)[C@H]1O[C@H]1C(N)=O , thanks. 0.4 µM

---

Tested on: HS 27 cells
Experiment: Growth inhibition assay, HS 27 cells (crystal violet)
Type: cell-based
Conditions: Homo sapiens, HS27, 72 h; 3 days with compound
reportedProperty: pIC50
Answer as the number alone; pIC50 is minus log10 of concentration in mol/L.

Here is how some compounds turned out for pIC50.
• C/C=C/C/C=C/CCC(=O)[C@H]1O[C@H]1C(N)=O = 4.70
• Cc1cccc(/C=C/CCC(=O)C2OC2C(N)=O)c1 (stereo not shown) = 4.49

Need pIC50 of C/C=C/C/C=C/CCN1C(=O)C=CC1=O , thanks. 4.20

---

Molecular target: FAS (fatty acid synthase), Cancer (Homo sapiens)
Construct: using a crude cell extract of a cancer cell line or Saccharomyces cerevisiae; endogenous in cells
Assay: FAS enzymatic assay, crude extract of breast cancer cell line ZR-75-1 (NADPH oxidation)
Details: ZR-75-1 crude cell extract, 30 min incubation at 10°-25° C.; read-out: IC50 for inhibition of FAS activity, Cancer
reportedProperty: IC50

Here is how some compounds turned out for IC50.
• Cc1cccc(/C=C/CCC2C=CC(=O)O2)c1 (stereo not shown) [CTC003] = > 100 µM
• C/C=C/C/C=C/CCN1C(=O)C=CC1=O [CTC013] = > 97 µM
• Cc1cccc(/C=C/CCC(=O)C2OC2C(N)=O)c1 (stereo not shown) [CTC006] = 10.4 µM
• Cc1cccc(/C=C/CCC(O)C2OC2C(N)=O)c1 (stereo not shown) [CTC004] = > 100 µM
• C/C=C/C/C=C/CCCN1C(=O)C=CC1=O [CTC014] = > 92 µM
• C/C=C/C/C=C/CCC(=O)[C@H]1O[C@H]1C(N)=O [CTC002] = 8.6 µM

// moving on: another record for IC50
Need IC50 of Cc1cccc(/C=C/CCCN2C(=O)C=CC2=O)c1 [CTC005] , thanks. > 78 µM

---

Test system: HS 27 cells
Test: Growth inhibition assay, HS 27 cells (crystal violet)
Type: cell-based
Conditions: Homo sapiens, HS27, 72 h; 3 days with compound
This section presents compounds with their documented IC50 values.

Here is how some compounds turned out for IC50.
• Cc1cccc(/C=C/CCCN2C(=O)C=CC2=O)c1 [CTC005] = > 50 µM
• Cc1cccc(/C=C/CCC(O)C2OC2C(N)=O)c1 (stereo not shown) [CTC004] = > 50 µM
• Cc1cccc(/C=C/CCC2C=CC(=O)O2)c1 (stereo not shown) [CTC003] = > 50 µM

// moving on: another record for IC50
Need IC50 of C/C=C/C/C=C/CCCN1C(=O)C=CC1=O [CTC014] , thanks. > 50 µM
